Listing of entries alongside the reported activity change, negative = inhibition.
- PROCEDURE DETAILS: qHTS Assay for Lipid Storage Modulators (AID 1519); further: on the % scale 0 is the no-effect control and ±100 the full control effect
- CONDITION NOTES: Drosophila S3 cells, BODIPY lipid droplet/cell ratio, laser cytometry; at 25.7 µM (top of the series); cells loaded with oleic acid
Records with an inconclusive call do not appear.
Give your result in % as a bare value.

[[record]]
chemical_structure = "Cc1c(N)c(=O)n(-c2ccccc2)n1C"
reading_unit = "%"
measured_result = -0.255


Exercise: Give reported activity change, negative = inhibition value for Nc1cc(-c2ccncc2)c[nH]c1=O
Solution: 3.03

Exercise: Give reported activity change, negative = inhibition value for O=C(O)Cc1ccc(-c2ccccc2)cc1
Solution: 1.48

Exercise: Give reported activity change, negative = inhibition value for Cc1c(Nc2ncccc2C(=O)O)cccc1C(F)(F)F
Solution: -1.24

Cited source for all entries: PubChem BioAssay (NCATS)
